Source: ChEMBL document CHEMBL4400577

Listed below: IC50 values for each entry.
EXPERIMENTAL TARGET: Protein kinase C iota type (Homo sapiens)
PROTOCOL DESCRIPTION: Inhibition of recombinant human full length N-terminal GST-fused PKCi (1 to 587 residues) expressed in baculovirus expression system using 5-FAM-RFARKGSLRQKNV as substrate measured after 60 mins by caliper microfluidic mobility shift assay

Solved cases (6 shown):
>  <CPD SMILES>
Nc1nccnc1C(=O)Nc1cccc(C2CC2)c1

>  <VALUE>
42.2 µM

$$$$
>  <CPD SMILES>
Nc1nccnc1C(=O)Nc1ccncc1

>  <VALUE>
23 µM

$$$$
>  <CPD SMILES>
Nc1ncc(-c2ccccc2)cc1C(=O)Nc1ccncc1

>  <VALUE>
32 µM

$$$$
>  <CPD SMILES>
CCc1cc(NC(=O)c2nccnc2N)ccn1

>  <VALUE>
19.6 µM

$$$$
>  <CPD SMILES>
Nc1nccnc1C(=O)Nc1ccnc(Br)c1

>  <VALUE>
> 384 µM

$$$$
>  <CPD SMILES>
Nc1ncc(Br)cc1C(=O)Nc1ccncc1

>  <VALUE>
> 384 µM

$$$$

Kindly consider the entry below.
Which measured IC50 value corresponds to `Nc1ncccc1C(=O)Nc1ccncc1` ?
22 µM

* * *

PROTOCOL DESCRIPTION: Clearance in human liver microsomes
Type: ADME, Microsome
EXPERIMENTAL CONTEXT: read-out: CLH
MEASURED PROPERTY: microsomal CLint
Form entry: enter the amount, then its unit.

What value of microsomal CLint has been reported for the following compound? `Nc1ncc(-c2cccc(N3CCNCC3)c2)cc1C(=O)Nc1ccncc1`
5.1 µL/min/mg

* * *

PROTOCOL DESCRIPTION: Solubility of the compound at pH 7.4
Format: physicochemical
EXPERIMENTAL CONTEXT: buffer
MEASURED PROPERTY: solubility (mg/mL)
Give just the numeric value; mg/mL need not be written.

# solubility lookup, item `Nc1ncc(-c2cccc(N3CCNCC3)c2)cc1C(=O)Nc1ccncc1`
0.164

* * *

EXPERIMENTAL TARGET: Protein kinase C iota type (Homo sapiens)
Sequence (P41743 whole entry): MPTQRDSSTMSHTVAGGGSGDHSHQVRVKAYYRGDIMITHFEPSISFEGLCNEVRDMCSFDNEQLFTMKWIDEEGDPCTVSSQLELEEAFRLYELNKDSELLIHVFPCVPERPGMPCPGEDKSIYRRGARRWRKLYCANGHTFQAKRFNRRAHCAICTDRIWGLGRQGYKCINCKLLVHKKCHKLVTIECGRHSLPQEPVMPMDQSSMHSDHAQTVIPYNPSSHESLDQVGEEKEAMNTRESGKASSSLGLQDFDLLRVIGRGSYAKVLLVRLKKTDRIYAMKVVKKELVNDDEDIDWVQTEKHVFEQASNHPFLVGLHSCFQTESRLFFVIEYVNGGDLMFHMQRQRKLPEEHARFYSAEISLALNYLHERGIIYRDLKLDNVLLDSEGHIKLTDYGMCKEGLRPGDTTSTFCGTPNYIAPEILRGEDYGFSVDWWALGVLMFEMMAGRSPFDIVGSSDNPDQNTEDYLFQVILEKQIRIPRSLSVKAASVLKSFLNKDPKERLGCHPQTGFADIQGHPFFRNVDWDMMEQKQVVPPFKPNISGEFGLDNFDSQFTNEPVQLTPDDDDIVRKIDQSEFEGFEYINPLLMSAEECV
PROTOCOL DESCRIPTION: Inhibition of recombinant human full length N-terminal GST-fused PKCi (1 to 587 residues) expressed in baculovirus expression system using 5-FAM-RFARKGSLRQKNV as substrate measured after 60 mins by caliper microfluidic mobility shift assay
MEASURED PROPERTY: pIC50
# pIC50: negative log10 of molar concentration; output just the value

>  <CPD SMILES>
Nc1ncc(-c2cccc(N3CCNCC3)c2)cc1C(=O)Nc1ccncc1

>  <pIC50>
6.47

$$$$
>  <CPD SMILES>
Nc1nccnc1C(=O)Nc1ccc(O)cc1

>  <pIC50>
4.12

$$$$

Read the next record carefully.
Request body: readout pIC50, system Protein kinase C iota type (Homo sapiens), query `Nc1nccnc1C(=O)Nc1ccc2[nH]ccc2c1` . Return the value.
4.47

* * *

PROTOCOL DESCRIPTION: Clearance in mouse liver microsomes
Assay type: ADME, Microsome
EXPERIMENTAL CONTEXT: read-out: CLH
MEASURED PROPERTY: microsomal CLint (µL/min/mg)
Numeric only. Scale: µL/min/mg

Which measured microsomal CLint value corresponds to `Nc1ncc(-c2cccc(N3CCNCC3)c2)cc1C(=O)Nc1ccncc1` ?
71

* * *

PROTOCOL DESCRIPTION: Permeability across apical to basolateral side in human Caco2 cells
Format: ADME, cell-based
EXPERIMENTAL CONTEXT: Caco-2
MEASURED PROPERTY: Papp A→B (×10⁻⁶ cm/s)
Answer with a number only, understood to be in ×10⁻⁶ cm/s.

Record request: Papp A→B value, item `Nc1ncc(-c2cccc(N3CCNCC3)c2)cc1C(=O)Nc1ccncc1`
0.28

* * *

EXPERIMENTAL TARGET: Protein kinase C iota type (Homo sapiens)
PROTOCOL DESCRIPTION: Inhibition of recombinant human full length N-terminal GST-fused PKCi (1 to 587 residues) expressed in baculovirus expression system using 5-FAM-RFARKGSLRQKNV as substrate measured after 60 mins by caliper microfluidic mobility shift assay
MEASURED PROPERTY: IC50

// solved cases for IC50 follow
>  <CPD SMILES>
Nc1nccnc1C(=O)Nc1ccncc1Br

>  <MEASURED PROPERTY>
IC50

>  <VALUE>
> 384 µM

$$$$
>  <CPD SMILES>
Nc1nccnc1C(=O)Nc1ccnc2[nH]ccc12

>  <MEASURED PROPERTY>
IC50

>  <VALUE>
> 384 µM

$$$$

Kindly consider the entry below.
Quick check: IC50 of `NC(=O)c1cccc(-c2cnc(N)c(C(=O)Nc3ccncc3)c2)c1` ?
> 384 µM
